# testSummary: ABTS method, free radical scavenging
# Format: biochemical
# conditionLabel: 25° C., 5 min reaction, 730 nm; read-out: IC50 for scavenging ABTS^+. free radicals
property: pIC50
Give bare numbers, as −log10 of the molar value.

{"columns": ["molSmiles", "property", "assayValue"],
 "data": [
  ["CS(C)=[O+][Cu-4]1([O+]=S(C)C)[O+]=C2C=C(c3ccc(O)cc3)Oc3c2c(cc(O)c3-c2cc(-c3cc(=O)c4c(O)cc(O)cc4o3)ccc2O)[OH+]1", "pIC50", 5.20]
]}

Next:
Query: Fill blank: measured pIC50 of the molecule O=c1cc(-c2ccc(O)c(-c3c(O)cc(O)c4c(=O)cc(-c5ccc(O)cc5)oc34)c2)oc2cc(O)cc(O)c12 is ____.
Response: 4.68
